Assignment: determine reported z-score for the given compounds.
assaySummary: plasmodial surface anion channel blockers, osmotic lysis – cell-based, P. falciparum Indochina, OD700, 2 h, primary screen (AID 1155);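 note: lysis reports solute entry through the parasite surface anion channel PSAC; channel blockers reduce lysis of infected cells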
conditionLabel: P. falciparum Indochina infected erythrocytes, higher = more signal, called active from +8 up or from −8 down
Answers are plain numbers.

Please review the following examples before continuing.
- compound: "COCCOC(=O)N1C(=O)[C@@]2(c3ccccc31)[C@H](c1ccc(OCCO)cc1)N1[C@H](c3ccccc3)[C@H](c3ccccc3)OC(=O)[C@H]1[C@@H]2C(=O)NC[C@H](O)c1ccccc1"
  z-score: 1.94
- compound: "CN(C)CCCNC(=O)[C@@]1(Cc2ccccc2I)c2ccccc2C(=O)N(Cc2ccccc2Cl)[C@H]1c1ccc(CO)cc1"
  z-score: 0.867
- compound: "Cc1ccc(C(C)CC(O)C2C=CC3C(=O)N(Cc4ccccc4)C(=O)C3N2n2cnnc2)o1 (configuration not stated)"
  z-score: 0.793
- compound: "COC(=O)[C@@]1(Cc2ccccc2)[C@H]2c3cc(C(=O)N4CCCC4)n(CCO)c3C[C@H]2CN1C(=O)c1ccccc1"
  z-score: -0.644
- compound: "C=CC[C@]1(C(=O)N(C)C)N=C(c2ccc(OCCCO)cc2)O[C@H]1c1ccccc1"
  z-score: 17.7
- compound: "O=C1NC(=O)C2C1C=CC(C(O)CCc1ccccc1)N2Nc1ccccn1 (configuration not stated)"
  z-score: -0.752

Now let's try a different one.
Query :: Suppose we examine the compound CC(C)C(CO)N1C(=O)[C@@H]2[C@H]3C(=O)OCC=C[C@H]3OC23C=CCN(Cn2nnc4ccccc42)C(=O)[C@@H]13 (some centres not stated) ; what z-score value has been reported?
Result :: 0.123

---

assaySummary: probe aLAP1 signal on lysate-treated microarray – cell lysate, small-molecule microarray, COS7 lysate, primary screen (AID 1124);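 note: lysate comes from COS7 cells expressing LAP1 and is applied at 0.3 µg/mL; score merges spot fluorescence near 667 nm with signal-to-noise over triplicate slides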
conditionLabel: probe aLAP1, fluorescence, higher = more signal
Exercise: state measured composite z-score for each of the molecules provided.
One number for each entry.

Examples with their reported composite z-score follow.
- molecule: "CC1CC/C=C\\[C@H]2OC34C=CCN(c5ccc(Cl)cc5)C(=O)[C@H]3N(C(CO)C(C)C)C(=O)[C@]4(C)C2C(=O)O1 (some centres undefined)"
  parameter: "composite z-score"
  observed: 0.438
- molecule: "O=c1c2ccc(Br)cc2nc(-c2ccccc2)n1Cc1cccc(O)c1"
  parameter: "composite z-score"
  observed: 1.3

For every item in the list below, what is its measured composite z-score?
1. Cc1ccccc1C(O)C1C=CC2C(=O)N(C)C(=O)C2N1Nc1ccc([N+](=O)[O-])cc1[N+](=O)[O-] (centres undefined)
2. O=C1C2C=CC(C(O)c3ccc(Br)cc3)N(Nc3ccccc3)C2C(=O)N1c1ccccc1 (centres undefined)

Result ::
[0.288, 0.189]

---

Record form. Attribute: composite z-score. Fill in for each entry.
Test system: Chordin-like protein 2 (CHRDL2)
assaySummary: compounds binding chordin-like 2 – biochemical, small-molecule microarray, 635 nm fluorescence, primary screen (AID 1126);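 note: printed compound slides probed with Chrdl2 protein at 4 µg/mL for 1 h at 4 C; score merges 667 nm emission intensity with signal to noise over three replicate slides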
conditionLabel: fluorescence 635 nm, higher = more signal
Give bare numbers.

- smilesData: "COc1ccc([Si](C)(C)[C@@H]2[C@@H](CC(=O)N(CCO)Cc3ccccc3)O[C@]3(C(=O)N(Cc4ccc(N5CCOC5=O)cc4)c4ccccc43)[C@H]2C)cc1"
  parameter: "composite z-score"
  observed: 0.697

// for each molecule below, give its composite z-score
1. O=C1O[C@@H](c2ccccc2)[C@@H](c2ccccc2)N2[C@@H](c3ccc(O)cc3)[C@]3(C(=O)Nc4ccc(C#CC5=CCCCC5)cc43)[C@@H](C(=O)Nc3nc4ccccc4s3)[C@H]12
2. O=C1C[C@@](C(=O)O)(c2ccc([N+](=O)[O-])cc2)[C@@H](c2ccc(CO)cc2)N1CC12CC3CC(CC(C3)C1)C2
3. C=C(COC)C(=O)CC[C@H](OC(=O)c1ccccc1-c1ccccc1C(=O)O)c1ccc(CO)o1

Result ::
0.842
-0.346
0.55

Field: composite z-score. Fill in for each record below.
1. C=CCOC(=O)[C@H]1[C@@H]2C(=O)O[C@@H](c3ccccc3)[C@@H](c3ccccc3)N2[C@@H](c2ccc(OCCOC(=O)[C@H]3C[C@H]4C(=O)N[C@@H](CCCCN(C)C)C(=O)N4[C@H]3c3ccc(O)cc3)cc2)[C@]12C(=O)Nc1ccccc12
2. COCCOC(=O)N1C(=O)[C@@]2(c3cc(C#CCCO)ccc31)[C@H](C(=O)N1CCc3cc(OC)c(OC)cc3C1)[C@H]1C(=O)O[C@H](c3ccccc3)[C@H](c3ccccc3)N1[C@@H]2c1ccc(OCCO)cc1

Result ::
1: 1.21; 2: 0.956
